- System: NCI-H1666
- run-description: relative viability (nuclei count vs DMSO), 5 days (fraction); higher = more cells survive
- run-conditions: first compound 0.08 µM
measured-quantity: relative viability

Record excerpt, results attached:
>  <compound>
O=c1cc(-c2cccc3c2Sc2ccccc2S3)oc(N2CCOCC2)c1 + C[C@@H](Oc1cc(-c2cnn(C3CCNCC3)c2)cnc1N)c1c(Cl)ccc(F)c1Cl [Crizotinib] (partner 1 µM)

>  <relative viability>
0.911

$$$$
>  <compound>
O=c1cc(-c2cccc3c2Sc2ccccc2S3)oc(N2CCOCC2)c1 + NC(=O)Nc1cc(-c2cccc(F)c2)sc1C(=O)N[C@H]1CCCNC1 [AZD7762] (partner 0.2 µM)

>  <relative viability>
0.76

$$$$

Query: Tell us which relative viability value is on record for COc1nc(C)cnc1NS(=O)(=O)c1cccnc1-c1ccc(-c2nnco2)cc1 [Zibotentan] + Cc1cc(Nc2cc(N3CCN(C)CC3)nc(Sc3ccc(NC(=O)C4CC4)cc3)n2)n[nH]1 [Tozasertib] (partner 0.1 µM)
Response: 0.582

Query: Give the reported value of relative viability for this record: COc1nc(C)cnc1NS(=O)(=O)c1cccnc1-c1ccc(-c2nnco2)cc1 [Zibotentan] + C[C@]1(O)C[C@@H](c2nc(-c3ccc4ccc(-c5ccccc5)nc4c3)c3c(N)nccn32)C1 [Linsitinib] (partner 1 µM)
Response: 0.656

Query: Please list relative viability recorded for the compound COc1nc(C)cnc1NS(=O)(=O)c1cccnc1-c1ccc(-c2nnco2)cc1 [Zibotentan] + Nc1nc2[nH]cc(CCc3ccc(C(=O)N[C@@H](CCC(=O)O)C(=O)O)cc3)c2c(=O)[nH]1 [Pemetrexed] (partner 0.2 µM)
Response: 0.842
